Target: VLA4 (Homo sapiens, UniProt P05556+P13612)
Construct: endogenous in cells; host or cells: Ramos cells
Sequence (P13612 34-1032): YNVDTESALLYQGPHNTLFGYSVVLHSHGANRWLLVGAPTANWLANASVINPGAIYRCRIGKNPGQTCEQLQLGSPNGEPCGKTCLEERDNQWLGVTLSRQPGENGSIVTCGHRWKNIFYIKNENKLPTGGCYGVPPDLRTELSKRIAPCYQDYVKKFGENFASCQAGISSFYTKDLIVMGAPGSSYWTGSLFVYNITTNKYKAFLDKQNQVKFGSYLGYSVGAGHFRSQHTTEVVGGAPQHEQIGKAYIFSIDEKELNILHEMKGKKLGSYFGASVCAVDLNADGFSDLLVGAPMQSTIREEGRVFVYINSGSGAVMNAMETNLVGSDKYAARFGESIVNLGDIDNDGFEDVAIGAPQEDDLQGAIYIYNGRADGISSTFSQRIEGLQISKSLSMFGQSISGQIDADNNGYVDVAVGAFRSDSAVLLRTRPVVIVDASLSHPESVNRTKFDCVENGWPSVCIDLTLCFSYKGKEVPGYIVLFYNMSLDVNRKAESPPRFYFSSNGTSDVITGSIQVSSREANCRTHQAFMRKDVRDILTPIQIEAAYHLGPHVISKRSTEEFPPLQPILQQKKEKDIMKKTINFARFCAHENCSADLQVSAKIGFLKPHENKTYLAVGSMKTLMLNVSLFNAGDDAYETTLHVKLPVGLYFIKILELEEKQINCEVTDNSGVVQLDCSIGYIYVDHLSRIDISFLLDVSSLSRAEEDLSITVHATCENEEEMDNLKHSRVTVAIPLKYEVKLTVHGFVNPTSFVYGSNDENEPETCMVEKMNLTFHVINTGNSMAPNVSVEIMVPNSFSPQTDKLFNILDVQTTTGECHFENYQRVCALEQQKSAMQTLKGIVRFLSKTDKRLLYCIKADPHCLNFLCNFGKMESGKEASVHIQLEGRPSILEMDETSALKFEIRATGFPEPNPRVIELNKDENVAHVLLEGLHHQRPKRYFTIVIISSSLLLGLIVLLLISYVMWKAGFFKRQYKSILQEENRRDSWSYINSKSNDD
Sequence (P05556 21-798): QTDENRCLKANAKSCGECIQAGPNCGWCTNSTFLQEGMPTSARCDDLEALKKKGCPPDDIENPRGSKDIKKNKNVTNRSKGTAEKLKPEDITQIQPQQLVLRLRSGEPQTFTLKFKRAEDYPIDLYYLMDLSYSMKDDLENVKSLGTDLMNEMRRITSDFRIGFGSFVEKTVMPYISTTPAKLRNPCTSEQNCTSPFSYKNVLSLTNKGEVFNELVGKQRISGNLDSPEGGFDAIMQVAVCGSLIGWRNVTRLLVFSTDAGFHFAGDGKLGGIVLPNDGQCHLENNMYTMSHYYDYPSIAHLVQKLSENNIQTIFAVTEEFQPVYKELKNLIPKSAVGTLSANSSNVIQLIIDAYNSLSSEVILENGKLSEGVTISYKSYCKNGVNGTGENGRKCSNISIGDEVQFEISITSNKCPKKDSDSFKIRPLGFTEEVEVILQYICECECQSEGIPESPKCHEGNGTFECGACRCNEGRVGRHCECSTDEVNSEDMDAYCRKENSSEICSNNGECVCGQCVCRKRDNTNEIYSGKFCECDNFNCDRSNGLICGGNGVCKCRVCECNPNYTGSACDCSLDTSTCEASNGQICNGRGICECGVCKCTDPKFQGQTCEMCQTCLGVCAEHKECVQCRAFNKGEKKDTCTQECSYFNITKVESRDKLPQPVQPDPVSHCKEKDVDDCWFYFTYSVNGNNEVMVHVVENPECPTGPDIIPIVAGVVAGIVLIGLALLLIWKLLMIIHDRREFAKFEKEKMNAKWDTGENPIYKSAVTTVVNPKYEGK
Assay: Inhibition of VLA4-dependent adhesion of Ramos cells to BSA-CS1
Assay type: cell-based
Settings: Ramos cells, BSA-CS1 coated wells, 2 mM MnCl2, 30 minutes at room temperature; read-out: IC50
Numbered stars: 1 amine (or outer) side, 2 acyl side, 3 side chain; on linkers, the order of the positions; unused ones are H or OH. Square brackets hold non-standard residues; d marks the D form. Peptide text beside a SMILES is read from it. * marks the point of attachment. X3 = COc1cc(CC(=O)[*:2])ccc1N[*:1]; X2 = O=C(Cc1ccc(N[*:1])cc1)[*:2]; CO = O=C([*:1])[*:2]; NHPh = c1ccc(N*)cc1; X1 = Oc1ccccc1N*
Reported IC50 values are given for each entry in this list.

compound	IC50
CC(C)C[C@H](NC(=O)C1CCc2ccccc2N1)C(=O)N[C@@H](CC(=O)O)C(=O)N[C@H](C(=O)Nc1ccc(F)cc1)C(C)C (stereo partly shown)	> 10 µM
CC(C)CNC(=O)[C@H](CC(=O)O)NC(=O)[C@H](CC(C)C)NC(=O)NC(C)(C)C	> 10 µM
COc1cc(CC(=O)N[C@@H](CCSC)C(=O)N[C@@H](CC(=O)O)C(=O)N[C@H](C(=O)N2CCC[C@H]2C(=O)O)C(C)C)ccc1NC(=O)Nc1ccccc1 [Compound 2] ({NHPh-CO}-[X3]MDVP-OH)	< 0.05 µM
CNC(=O)[C@@H](NC(=O)[C@H](CC(=O)O)NC(=O)[C@H](CCCNC(=N)N)NC(=O)Cc1ccccc1)C(C)C [Compound 131] (HELM PEPTIDE1{[O=C(Cc1ccccc1)[*:2]].R.D.V.[CN[*:1]]}$$$$V2.0)	> 10 µM
CC(C)C[C@H](NC(=O)Cc1ccc(NC(=O)Nc2ccccc2)cc1)C(=O)N[C@@H](CC(=O)O)C(=O)N[C@H](C(=O)N1CCOCC1)C(C)C	< 0.05 µM
CC(C)CNC(=O)[C@H](CC(=O)O)NC(=O)[C@H](CC(C)C)NC(=O)CCc1ccccc1	> 10 µM
CC(C)C[C@H](NC(=O)Cc1ccc(NC(=O)Nc2ccccc2O)cc1)C(=O)N[C@@H](CC(=O)O)C(=O)N[C@H](C(=O)N1CCC[C@H]1C(=O)O)C(C)C [Compound 144] ({X1-CO}-[X2]LDVP-OH)	< 0.05 µM
